biological target: rat CCR2 (Rattus norvegicus (Rat), UniProt O55193); experiment: Inhibition of native agonist (rat MCP-1)-induced intracellular calcium release, calcium flux assay in CHO cells expressing rat CCR2 and Gα16; format: cell-based; conditions: read-out: rCCR2 Kb
Sequence (O55193 whole entry): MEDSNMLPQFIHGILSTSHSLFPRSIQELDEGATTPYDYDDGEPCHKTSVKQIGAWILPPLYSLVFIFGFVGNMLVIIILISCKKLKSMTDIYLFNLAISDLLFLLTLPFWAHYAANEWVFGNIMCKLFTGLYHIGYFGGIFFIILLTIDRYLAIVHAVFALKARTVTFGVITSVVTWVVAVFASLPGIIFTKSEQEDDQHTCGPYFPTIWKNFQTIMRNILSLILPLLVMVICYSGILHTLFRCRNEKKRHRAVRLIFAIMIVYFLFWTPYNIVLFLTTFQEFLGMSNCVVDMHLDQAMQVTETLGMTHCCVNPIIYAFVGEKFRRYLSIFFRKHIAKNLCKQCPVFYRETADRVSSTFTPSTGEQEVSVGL
Known Kb of a selection of compounds
Observed property: Kb (nM)

{"columns": ["Compound", "Observed property", "Reported measurement"],
 "data": [
  ["CO[C@@H]1COCC[C@H]1N[C@@H]1C[C@H]2CCC[C@@]2(C(=O)N2C[C@@H]3C[C@H]2CN3c2cc(C(F)(F)F)cnn2)C1 (stereo in doubt)", "Kb", 29],
  ["CO[C@@H]1COCC[C@@H]1N[C@@H]1C[C@H]2CCC[C@@]2(C(=O)N2C[C@@H]3C[C@H]2CN3c2cccc(OC(F)(F)F)c2)C1", "Kb", 8],
  ["CO[C@@H]1COCC[C@@H]1N[C@@H]1C[C@H]2CCC[C@@]2(C(=O)N2C[C@@H]3C[C@H]2CN3c2cccc(C(F)(F)F)c2C)C1", "Kb", 158],
  ["CO[C@@H]1COCC[C@@H]1N[C@@H]1C[C@H]2CCC[C@@]2(C(=O)N2C[C@@H]3C[C@H]2CN3c2ccc(C#N)c(C(F)(F)F)c2)C1 (racemic)", "Kb", 3],
  ["CO[C@@H]1COCC[C@@H]1N[C@@H]1C[C@H]2CCC[C@@]2(C(=O)N2C[C@@H]3C[C@H]2CN3c2cccc(C(F)(F)F)n2)C1", "Kb", 12],
  ["CO[C@@H]1COCC[C@@H]1N[C@@H]1C[C@H]2CCC[C@@]2(C(=O)N2C[C@@H]3C[C@H]2CN3c2ccc(F)c(C(F)(F)F)c2)C1", "Kb", 3]
]}

###

target: rat CCR2 (Rattus norvegicus (Rat), UniProt O55193); assay: Inhibition of native agonist (rat MCP-1)-induced intracellular calcium release, calcium flux assay in CHO cells expressing rat CCR2 and Gα16; type: cell-based; conditions: read-out: rCCR2 Kb
Observed property: log10 of Kb (log10 of the value in nM)

{"columns": ["Compound", "Target", "log10 of Kb"],
 "data": [
  ["CO[C@@H]1COCC[C@@H]1N[C@@H]1C[C@H]2CCC[C@@]2(C(=O)N2C[C@@H]3C[C@H]2CN3c2ccc(Cl)c(C#N)c2)C1 [Example 47]", "rat CCR2 (Rattus norvegicus (Rat), UniProt O55193)", 0.60],
  ["CO[C@@H]1COCC[C@@H]1N[C@@H]1C[C@H]2CCC[C@@]2(C(=O)N2C[C@@H]3C[C@H]2CN3c2ccc(C)c(C(F)(F)F)c2)C1 [Example 19]", "rat CCR2 (Rattus norvegicus (Rat), UniProt O55193)", 1.08],
  ["CO[C@@H]1COCC[C@@H]1N[C@@H]1C[C@H]2CCC[C@@]2(C(=O)N2C[C@@H]3C[C@H]2CN3c2cc(F)cc(C(F)(F)F)c2)C1 [Example 25]", "rat CCR2 (Rattus norvegicus (Rat), UniProt O55193)", 0.70],
  ["CO[C@@H]1COCC[C@@H]1N[C@@H]1C[C@H]2CCC[C@@]2(C(=O)N2C[C@H]3C[C@@H]2CN3c2cc(C(F)(F)F)ccn2)C1 [Example 3]", "rat CCR2 (Rattus norvegicus (Rat), UniProt O55193)", 2.84],
  ["CO[C@@H]1COCC[C@@H]1N[C@@H]1C[C@H]2CCC[C@@]2(C(=O)N2C[C@@H]3C[C@H]2CN3c2cccc(C(F)(F)F)c2)C1 [Example 18]", "rat CCR2 (Rattus norvegicus (Rat), UniProt O55193)", 0.78],
  ["CO[C@@H]1COCC[C@@H]1N[C@@H]1C[C@H]2CCC[C@@]2(C(=O)N2C[C@@H]3C[C@H]2CN3c2ccc(C#N)cc2C(F)(F)F)C1 [Example 37]", "rat CCR2 (Rattus norvegicus (Rat), UniProt O55193)", 2.39],
  ["CO[C@@H]1COCC[C@@H]1N[C@@H]1C[C@H]2CCC[C@@]2(C(=O)N2C[C@@H]3C[C@H]2CN3c2cc(C(F)(F)F)ccc2C(F)(F)F)C1 [Example 50]", "rat CCR2 (Rattus norvegicus (Rat), UniProt O55193)", 0.78],
  ["CO[C@@H]1COCC[C@@H]1N[C@@H]1C[C@H]2CCC[C@@]2(C(=O)N2C[C@@H]3C[C@H]2CN3c2cc(C(F)(F)F)ccc2C)C1 [Example 16]", "rat CCR2 (Rattus norvegicus (Rat), UniProt O55193)", 0.85],
  ["CO[C@@H]1COCC[C@@H]1N[C@@H]1C[C@H]2CCC[C@@]2(C(=O)N2C[C@@H]3C[C@H]2CN3c2cc(C#N)ccc2C(F)(F)F)C1 [Example 36]", "rat CCR2 (Rattus norvegicus (Rat), UniProt O55193)", 1.38],
  ["CO[C@@H]1COCC[C@@H]1N[C@@H]1C[C@H]2CCC[C@@]2(C(=O)N2C[C@@H]3C[C@H]2CN3c2cc(C(F)(F)F)ccc2C#N)C1 [Example 28]", "rat CCR2 (Rattus norvegicus (Rat), UniProt O55193)", 0.70],
  ["CO[C@@H]1COCC[C@@H]1N[C@@H]1C[C@H]2CCC[C@@]2(C(=O)N2C[C@@H]3C[C@H]2CN3c2cc(C#N)cc(C(F)(F)F)c2)C1 [Example 42]", "rat CCR2 (Rattus norvegicus (Rat), UniProt O55193)", 1.41]
]}

###

target: human CCR2B (Homo sapiens (Human)); assay: Inhibition of [125I]-labeled MCP-1 binding to hCCR2B (radioligand binding in CHO cells); conditions: mean Ki; [125I]-MCP-1 50 pM; CHO cells expressing human CCR2B and Gα16
Sequence (P41597 other isoform, or with tags, fused parts or gaps): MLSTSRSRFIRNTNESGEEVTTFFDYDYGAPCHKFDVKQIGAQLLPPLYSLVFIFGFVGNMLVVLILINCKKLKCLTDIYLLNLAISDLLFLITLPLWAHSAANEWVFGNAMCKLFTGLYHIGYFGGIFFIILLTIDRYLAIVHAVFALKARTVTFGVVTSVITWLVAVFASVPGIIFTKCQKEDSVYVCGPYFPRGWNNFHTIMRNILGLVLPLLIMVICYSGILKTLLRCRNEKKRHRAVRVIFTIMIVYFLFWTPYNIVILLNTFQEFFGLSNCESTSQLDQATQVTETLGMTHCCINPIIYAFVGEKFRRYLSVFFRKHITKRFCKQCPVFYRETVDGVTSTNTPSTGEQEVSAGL
# strict inequality: Ki < 60 nM yields Y, everything else yields N

{"columns": ["Molecular string", "Group"],
 "data": [
  ["CO[C@@H]1COCC[C@@H]1N[C@@H]1C[C@H]2CCC[C@@]2(C(=O)N2C[C@@H]3C[C@H]2CN3c2ccc(F)c(C(F)(F)F)c2)C1", "Y"],
  ["O=C(N1C[C@@H]2C[C@H]1CN2c1cc(C(F)(F)F)ccn1)[C@@]12CCC[C@@H]1C[C@@H](N1CCC(c3ccccc3)CC1)C2", "Y"],
  ["CO[C@@H]1COCC[C@@H]1N[C@@H]1C[C@H]2CCC[C@@]2(C(=O)N2C[C@@H]3C[C@H]2CN3c2cccc(C(F)(F)F)c2)C1", "N"],
  ["C[C@@H]1COCC[C@@H]1N[C@@H]1C[C@H]2CCC[C@@]2(C(=O)N2C[C@@H]3C[C@H]2CN3c2cc(C(F)(F)F)ccn2)C1", "Y"],
  ["CO[C@@H]1COCC[C@@H]1N[C@@H]1C[C@H]2CCC[C@@]2(C(=O)N2C[C@@H]3C[C@H]2CN3c2ccnc(C(F)(F)F)n2)C1", "N"]
]}

###

Known Kb of a selection of compounds
Target: rat CCR2 (Rattus norvegicus (Rat), UniProt O55193)
Assay: Inhibition of native agonist (rat MCP-1)-induced intracellular calcium release, calcium flux assay in CHO cells expressing rat CCR2 and Gα16
Format: cell-based
Conditions: read-out: rCCR2 Kb
Procedure: CHO cells expressing human CCR2B were generated as follows. cDNA for human CCR2B (cloned from human blood) was cloned into plasmid pcDNA3.1 (from Invitrogen). […] Briefly, cells were cultured overnight in a microtiter plate at 8000 per well. […] Calcium flux assays were performed on a FLIPR^Tetra instrument (Molecular Devices) by adding compound to the cells followed by addition of native agonist and measuring the change in fluorescence as a function of time. […]

{"columns": ["Molecular string", "Target", "Measure unit", "Kb"],
 "data": [
  ["O=C(N1C[C@@H]2C[C@H]1CN2c1cc(C(F)(F)F)ccn1)[C@@]12CCC[C@@H]1C[C@@H](N1CCC(c3ccccc3)CC1)C2", "rat CCR2 (Rattus norvegicus (Rat), UniProt O55193)", "nM", 23],
  ["CO[C@@H]1COCC[C@@H]1N[C@@H]1C[C@H]2CCC[C@@]2(C(=O)N2C[C@@H]3C[C@H]2CN3c2cc(C(F)(F)F)cnn2)C1", "rat CCR2 (Rattus norvegicus (Rat), UniProt O55193)", "nM", 7],
  ["O=C(O)c1cccc(C2CCN([C@@H]3C[C@H]4CCC[C@@]4(C(=O)N4C[C@@H]5C[C@H]4CN5c4cc(C(F)(F)F)ccn4)C3)CC2)c1", "rat CCR2 (Rattus norvegicus (Rat), UniProt O55193)", "nM", 38]
]}

###

Target: human CCR2B (Homo sapiens (Human))
Assay: Inhibition of [125I]-labeled MCP-1 binding to hCCR2B (radioligand binding in CHO cells)
Details: mean Ki; [125I]-MCP-1 50 pM; CHO cells expressing human CCR2B and Gα16
Procedure: CHO cells expressing human CCR2B were generated as follows. cDNA for human CCR2B (cloned from human blood) was cloned into plasmid pcDNA3.1 (from Invitrogen). […] Compounds were serially diluted in DMSO before diluting into assay buffer (25 mM HEPES, pH 7.4, 5 mM MgCl2, 1 mM CaCl2, 0.5% BSA) with cryo preserved CHO cells expressing human CCR2B and the Gα16 coupling protein (30×10^3/well) and [^125I]-MCP-1 (50 pM). […] The corresponding Ki value is calculated as follows: […]
Known Ki of a selection of compounds
Observed property: Ki (nM)

{"columns": ["Molecular string", "Measure unit", "Reported measurement"],
 "data": [
  ["CO[C@@H]1COCC[C@H]1N[C@@H]1C[C@H]2CCC[C@@]2(C(=O)N2C[C@@H]3C[C@H]2CN3c2cc(C(F)(F)F)ccn2)C1", "nM", 32],
  ["CO[C@@H]1COCC[C@@H]1N[C@@H]1C[C@H]2CCC[C@@]2(C(=O)N2C[C@@H]3C[C@H]2CN3c2ccc(F)c(Cl)c2)C1", "nM", 112],
  ["CO[C@@H]1COCC[C@@H]1N[C@@H]1C[C@H]2CCC[C@@]2(C(=O)N2C[C@@H]3C[C@H]2CN3c2cccc(C(F)(F)F)n2)C1", "nM", 120]
]}
